tested on: SW480; test: Cytotoxicity against human SW480 cells after 48 hrs by MTT assay; format: functional, cell-based; conditions: SW480, 48 h
Entries and their measured log10 IC50 follow.
Reminder: these figures are log10 of reported IC50, in µM before transformation.

Please review the following examples before continuing.
# COMPOUND_SMILES, ASSAYED_SYSTEM, log10 IC50
rows = [
    ("CC[C@@]12CC[C@@H]3N(C)c4ccc([C@@H]5[C@H]6O[C@H]6[C@@]6(CC)CC(C(=O)OC)=C7Nc8c(cc(O)c(OC)c8OC)[C@@]78CCN5[C@@H]68)cc4[C@@]34CCN(C[C@H]3O[C@H]31)[C@@H]24", "SW480", 1.14),
    ("CC[C@H]1C[C@H]2C[C@H]3c4[nH]c5ccc(OC)cc5c4CCN([C@@H]13)[C@@H]2CC(C)=O", "SW480", 1.11),
    ("C/C=C1/CN(C)[C@H]2Cc3c([nH]c4ccccc34)[C@H](c3cc4[nH]c5c(c4cc3OC)CCN3C[C@H]4C[C@H](CC)[C@H]3[C@H]5C4)C[C@H]1[C@]2(CO)C(=O)OC", "SW480", 1.11),
    ("C/C=C1/CN(C)[C@H]2Cc3c([nH]c4ccccc34)[C@@H](c3c(O)ccc4c5c([nH]c34)[C@]3(C(=O)OC)C[C@H]4C[C@H](CC)[C@@H]3N(CC5)C4)C[C@@H]1[C@]2(CO)C(=O)OC", "SW480", 0.43),
    ("CC[C@H]1C[C@@H]2CN3CCc4c([nH]c5c([C@H]6C[C@H]7[C@]8(C(=O)OC)CO[C@H](N(C)[C@H]8Cc8c6[nH]c6ccccc86)[C@@]76O[C@@H]6C)c(OC)ccc45)[C@](C(=O)OC)(C2)[C@H]13", "SW480", 0.41),
]

Kindly indicate its recorded log10 IC50. Item: C/C=C1/CN(C)[C@H]2Cc3c([nH]c4ccccc34)[C@H](c3cc4c5c([nH]c4cc3OC)[C@]3(C(=O)OC)C[C@@H]4C[C@H](CC)[C@@H]3N(CC5)C4)C[C@H]1[C@]2(CO)C(=O)OC
1.13

Kindly indicate its recorded log10 IC50. Item: CC[C@@]12CC(C(=O)OC)=C3Nc4cc5c(cc4[C@@]34CCN(C[C@H]3O[C@H]31)[C@@H]24)[C@@H]1[C@H](O5)[C@@H](O)[C@@]2(CC)CC(C(=O)OC)=C3Nc4c(cc(O)c(OC)c4OC)[C@@]34CCN1[C@@H]24
0.17

Kindly indicate its recorded log10 IC50. Item: C/C=C1/CN(C)[C@H]2Cc3c([nH]c4ccccc34)[C@H](c3cc4[nH]c5c(c4cc3OC)CCN3C[C@H]4C[C@H](CC)[C@H]3[C@@]5(C(=O)OC)C4)C[C@H]1[C@]2(CO)C(=O)OC
1.22

---

test system: A549; assay: Cytotoxicity against human A549 cells after 48 hrs by MTT assay; type: functional, cell-based; conditions: A549, 48 h
METRIC: IC50 (µM)
Output spec: scalar in µM, unitless text.

Please review the following examples before continuing.
# COMPOUND_SMILES, IC50 [µM]
records = [
    ("C/C=C1/CN(C)[C@H]2Cc3c([nH]c4ccccc34)[C@@H](c3c(O)ccc4c5c([nH]c34)[C@]3(C(=O)OC)C[C@H]4C[C@H](CC)[C@@H]3N(CC5)C4)C[C@@H]1[C@]2(CO)C(=O)OC", 9.4),
    ("C/C=C1/CN(C)[C@H]2Cc3c([nH]c4ccccc34)[C@H](c3cc4c5c([nH]c4cc3OC)[C@]3(C(=O)OC)C[C@@H]4C[C@H](CC)[C@@H]3N(CC5)C4)C[C@H]1[C@]2(CO)C(=O)OC", 14.8),
]

Consider the additional compound presented here.
Kindly indicate its recorded IC50. Item: CC[C@@]12CC(C(=O)OC)=C3Nc4cc5c(cc4[C@@]34CCN(C[C@H]3O[C@H]31)[C@@H]24)[C@@H]1[C@H](O5)[C@@H](O)[C@@]2(CC)CC(C(=O)OC)=C3Nc4c(cc(O)c(OC)c4OC)[C@@]34CCN1[C@@H]24
0.21

Reference source: ChEMBL document CHEMBL2406995
